assayProtocol: Hemolytic activity
Format: cell-based
conditionNotes: bovine, erythrocyte (RBC) suspension, pH 7.4
Entries and their hemolysis at 30 min values follow.
Expressed in %, but write only the number.

Example entries begin here.
- compoundSmiles: "CCc1ccccc1NC(=O)CCCSc1nnc(CCCc2c[nH]c3ccccc23)o1"
  resultUnit: "%"
  hemolysis at 30 min: 2.41
- compoundSmiles: "Cc1cc(C)cc(NC(=O)CCCSc2nnc(CCCc3c[nH]c4ccccc34)o2)c1"
  resultUnit: "%"
  hemolysis at 30 min: 7.32

-- ask Record request: hemolysis at 30 min value, item `CCc1ccc(NC(=O)CCCSc2nnc(CCCc3c[nH]c4ccccc34)o2)cc1`
-- reply 0.62

* * *

Examples of molecules with documented pIC50 follow.
systemTested: Jack bean urease (Canavalia ensiformis, UniProt P07374)
Sequence (P07374 whole entry, looked up): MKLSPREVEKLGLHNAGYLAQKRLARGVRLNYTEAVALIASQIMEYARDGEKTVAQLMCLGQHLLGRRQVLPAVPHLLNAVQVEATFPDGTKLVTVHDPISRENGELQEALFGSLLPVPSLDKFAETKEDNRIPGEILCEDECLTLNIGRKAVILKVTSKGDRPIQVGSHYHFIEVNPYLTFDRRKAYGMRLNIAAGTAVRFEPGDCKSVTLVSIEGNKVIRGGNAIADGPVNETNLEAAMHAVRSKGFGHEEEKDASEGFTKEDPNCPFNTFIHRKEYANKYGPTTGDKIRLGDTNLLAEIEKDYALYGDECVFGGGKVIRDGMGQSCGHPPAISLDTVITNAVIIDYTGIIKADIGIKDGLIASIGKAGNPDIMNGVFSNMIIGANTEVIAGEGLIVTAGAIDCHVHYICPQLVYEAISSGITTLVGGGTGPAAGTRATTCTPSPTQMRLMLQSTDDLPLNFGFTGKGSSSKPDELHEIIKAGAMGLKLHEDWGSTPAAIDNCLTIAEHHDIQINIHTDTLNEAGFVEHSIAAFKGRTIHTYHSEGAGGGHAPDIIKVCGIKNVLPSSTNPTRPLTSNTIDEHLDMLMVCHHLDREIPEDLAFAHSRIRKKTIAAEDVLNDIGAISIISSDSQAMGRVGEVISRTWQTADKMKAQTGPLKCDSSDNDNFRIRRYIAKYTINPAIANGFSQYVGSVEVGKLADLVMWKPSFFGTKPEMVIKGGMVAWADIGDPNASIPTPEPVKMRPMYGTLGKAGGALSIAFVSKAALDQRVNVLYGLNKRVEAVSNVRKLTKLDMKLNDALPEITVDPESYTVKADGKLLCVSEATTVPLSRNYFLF
assayProtocol: In vitro urease inhibitory activity
Assay type: biochemical
pIC50 here: minus log base 10 of the concentration, concentration in moles per litre.

Solved entries (count: 9):
- compoundSmiles: "Cc1cccc(C)c1NC(=O)CCCSc1nnc(CCCc2c[nH]c3ccccc23)o1"
  pIC50: 7.60
- compoundSmiles: "Cc1cc(C)cc(NC(=O)CCCSc2nnc(CCCc3c[nH]c4ccccc34)o2)c1"
  pIC50: 6.91
- compoundSmiles: "Cc1ccc(NC(=O)CCCSc2nnc(CCCc3c[nH]c4ccccc34)o2)cc1"
  pIC50: 6.99
- compoundSmiles: "Cc1ccccc1NC(=O)CCCSc1nnc(CCCc2c[nH]c3ccccc23)o1"
  pIC50: 7.14
- compoundSmiles: "CCc1cccc(C)c1NC(=O)CCCSc1nnc(CCCc2c[nH]c3ccccc23)o1"
  pIC50: 7.43
- compoundSmiles: "Cc1ccc(NC(=O)CCCSc2nnc(CCCc3c[nH]c4ccccc34)o2)c(C)c1"
  pIC50: 6.70
- compoundSmiles: "CCc1ccccc1NC(=O)CCCSc1nnc(CCCc2c[nH]c3ccccc23)o1"
  pIC50: 7.27
- compoundSmiles: "CCc1ccc(NC(=O)CCCSc2nnc(CCCc3c[nH]c4ccccc34)o2)cc1"
  pIC50: 7.76
- compoundSmiles: "Cc1cccc(NC(=O)CCCSc2nnc(CCCc3c[nH]c4ccccc34)o2)c1"
  pIC50: 7.49

Next molecule, please.
-- ask Which pIC50 value is on record for `CCOc1ccc(NC(=O)CCCSc2nnc(CCCc3c[nH]c4ccccc34)o2)cc1` ?
-- reply 7.28

* * *

Listed next: entries and their corresponding hemolysis at 30 min.
assayProtocol: Hemolytic activity
Assay type: cell-based
conditionNotes: bovine, erythrocyte (RBC) suspension, pH 7.4
Only the number, expressed in %, is required.

Record excerpt, results attached:
- compound: "Cc1ccc(NC(=O)CCCSc2nnc(CCCc3c[nH]c4ccccc34)o2)c(C)c1"
  hemolysis at 30 min, %: 1.41
- compound: "CC(C)(C)CC(C)(C)c1ccc(OCCO)cc1 [Triton X, reference compound]"
  hemolysis at 30 min, %: 89.1
- compound: "Cc1ccc(NC(=O)CCCSc2nnc(CCCc3c[nH]c4ccccc34)o2)cc1"
  hemolysis at 30 min, %: 3.51

-- ask // returns reported hemolysis at 30 min for input `Cc1cccc(C)c1NC(=O)CCCSc1nnc(CCCc2c[nH]c3ccccc23)o1`
-- reply 2.63

-- ask What does the data say about its hemolysis at 30 min? Entry: `CCOc1ccc(NC(=O)CCCSc2nnc(CCCc3c[nH]c4ccccc34)o2)cc1`
-- reply 3.16

-- ask Looking for the measured hemolysis at 30 min of `Cc1ccccc1NC(=O)CCCSc1nnc(CCCc2c[nH]c3ccccc23)o1` , can you help?
-- reply 5.18

-- ask Would you kindly share the measured hemolysis at 30 min for `Cc1cccc(NC(=O)CCCSc2nnc(CCCc3c[nH]c4ccccc34)o2)c1` ?
-- reply 5.92

-- ask So what's the measured hemolysis at 30 min for this one? `CCc1cccc(C)c1NC(=O)CCCSc1nnc(CCCc2c[nH]c3ccccc23)o1`
-- reply 9.63
